- PROTOCOL_TEXT: Pharmacokinetic experiment in mice (PO)
- Assay type: in vivo
- CONDITIONS: ICR, mouse, plasma, 10 mg/kg, 10 mpk, read-out: Peak hour tmax
PARAMETER_MEASURED: Tmax (min)
Respond with the bare value in min.

| ENTRY_SMILES | RESULT_VALUE |
| --- | --- |
| NS(=O)(=O)CCNc1nonc1C(=NO)Nc1ccc(F)c(Br)c1 | 40.2 |

// sample `CNS(=O)(=O)CCCNc1nonc1/C(=N/O)Nc1ccc(F)c(Br)c1` , its Tmax was 30

// sample `[2H]C([2H])([2H])NS(=O)(=O)CCCNc1nonc1/C(=N/O)Nc1ccc(F)c(Br)c1` , its Tmax was 30

// sample `CCNS(=O)(=O)CCCNc1nonc1C(=NO)Nc1ccc(F)c(Br)c1` , its Tmax was 30
